- assay system: human TGR5 (Homo sapiens, UniProt Q8TDU6)
- Sequence (Q8TDU6 1-330): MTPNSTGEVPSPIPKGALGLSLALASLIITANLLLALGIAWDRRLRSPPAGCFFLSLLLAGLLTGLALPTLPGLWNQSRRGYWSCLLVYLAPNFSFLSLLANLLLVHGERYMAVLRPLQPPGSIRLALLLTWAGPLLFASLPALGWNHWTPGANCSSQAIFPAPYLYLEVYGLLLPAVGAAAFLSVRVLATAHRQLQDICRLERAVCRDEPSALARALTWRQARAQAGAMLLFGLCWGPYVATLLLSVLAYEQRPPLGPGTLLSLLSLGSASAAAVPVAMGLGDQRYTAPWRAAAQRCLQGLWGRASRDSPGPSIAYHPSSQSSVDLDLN
- assay explanation: cAMP production assay in HEK293 cells stably expressing TGR5 (LANCE TR-FRET)
- particulars: 30 minutes stimulation, read-out: cAMP Production in 293-TGR5 Cells EC50
- Protocol: HEK293 cells stably expressing TGR5 (HEK293-TGR5) were established by stably transfecting HEK-293 cells with an expression vector (pcDNA 3.1, Invetrogen) inserted with human TGR5 cDNA using Fugene6 (Roche, Indianapolis, Ind.) according to conventional methods. […] TR-FRET signal was detected using the Viewlux (Perkin Elmer Inc., Boston Mass.). EC50 values were determined using Graph Pad Prizm analysis (GraphPad Software, Inc). […]
pEC50: −log10 of the molar value.
Overview of recorded pEC50 for various compounds

Observe how each entry below is paired with its result.
COc1cc(-c2nc3ccccc3c(=O)n2NCc2ccc(F)cc2)ccc1C [Example 67] :: ≥ 5.00
O=c1c2ccccc2nc(-c2ccc(F)cc2)n1NCc1ccc(Cl)cc1 [Example 79] :: ≥ 5.00
O=c1c2ccccc2nc(-c2ccc(Cl)cc2)n1NCc1ccc(F)c(F)c1 [Example 53] :: ≥ 5.00
COc1ccc2c(=O)n(NCc3ccc(Cl)cc3)c(-c3ccc(F)cc3)nc2c1 [Example 35] :: < 5.00
COc1cc(-c2nc3ccccc3c(=O)n2NCc2ccc(Br)cc2)ccc1Cl [Example 74] :: ≥ 5.00
O=c1c2ccccc2nc(-c2ccccc2F)n1NCc1ccc(F)c(F)c1 [Example 14] :: ≥ 5.00
O=c1c2ccccc2nc(-c2ccc(Cl)cc2)n1NCc1ccc(C(F)(F)F)cc1 [Example 52] :: ≥ 5.00
Cc1ccc2c(=O)n(NCc3ccc(F)cc3F)c(-c3ccccc3F)nc2c1 [Example 25] :: ≥ 5.00
O=c1c2ccccc2nc(-c2cccc(F)c2)n1NCc1ccc(F)c(C(F)(F)F)c1 [Example 107] :: ≥ 5.00
COc1ccc(-c2nc3ccccc3c(=O)n2NCc2ccc(Cl)cc2)cc1O [Example 119] :: ≥ 5.00

Lab book: pEC50 of O=c1c2ccccc2nc(-c2ccc(Cl)cc2)n1NCc1ccc(Br)cc1 [Example 47] noted as ≥ 5.00

Lab book: pEC50 of O=c1c2ccccc2nc(-c2ccc(F)cc2)n1NCc1ccc(Br)cc1 [Example 1] noted as ≥ 5.00

Lab book: pEC50 of O=c1c2ccccc2nc(-c2ccccc2C(F)(F)F)n1NCc1ccc(Br)cc1 [Example 8] noted as ≥ 5.00

* * *

- assay system: human TGR5 (Homo sapiens, UniProt Q8TDU6)
- assay explanation: cAMP production assay in HEK293 cells stably expressing TGR5 (LANCE TR-FRET)
- particulars: 30 minutes stimulation, read-out: cAMP Production in 293-TGR5 Cells EC50
readout type: EC50

O=c1c2ccccc2nc(-c2cccc(O)c2)n1NCc1ccc(Br)cc1 [Example 96] :: ≤ 10 µM
CC(C)(C)c1ccc(CNn2c(-c3ccccc3F)nc3ccccc3c2=O)cc1 [Example 11] :: > 10 µM
O=C(O)c1ccc(CNn2c(-c3ccccc3F)nc3ccccc3c2=O)cc1 [Example 101] :: > 10 µM
O=c1c2c(F)cccc2nc(-c2ccc(F)cc2)n1NCc1ccc(Br)cc1 [Example 112] :: ≤ 10 µM
O=c1c2ccccc2nc(-c2cccc(OC(F)(F)F)c2)n1NCc1ccc(Cl)cc1 [Example 61] :: ≤ 10 µM

Lab book: EC50 of COc1ccc2nc(-c3ccccc3F)n(NCc3ccc(Br)cc3)c(=O)c2c1 [Example 26] noted as > 10 µM

Lab book: EC50 of O=c1c2ccccc2nc(-c2ccc(F)cc2)n1NCc1ccc2ccccc2c1 [Example 38] noted as ≤ 10 µM

Lab book: EC50 of O=c1c2ccccc2nc(-c2cccc(F)c2)n1NCc1ccc(F)cc1F [Example 7] noted as ≤ 10 µM

Lab book: EC50 of Cc1ccccc1-c1nc2ccccc2c(=O)n1NCc1ccc(Br)cc1 [Example 15] noted as ≤ 10 µM

Lab book: EC50 of Cc1cccc2nc(-c3ccc(F)cc3)n(NCc3ccc(Br)cc3)c(=O)c12 [Example 111] noted as ≤ 10 µM

Lab book: EC50 of O=c1c2ccccc2nc(-c2ccccc2F)n1NCc1cccc(C(F)(F)F)c1 [Example 20] noted as ≤ 10 µM

Lab book: EC50 of O=c1c2ccccc2nc(-c2ccc(O)nc2)n1NCc1ccc(Br)cc1 [Example 117] noted as ≤ 10 µM

Lab book: EC50 of O=c1c2ccc(C(F)(F)F)cc2nc(-c2ccccc2F)n1NCc1ccc(Br)cc1 [Example 28] noted as > 10 µM

Lab book: EC50 of O=c1c2ccccc2nc(-c2ccc(F)c(F)c2)n1NCc1ccc(Br)cc1 [Example 92] noted as ≤ 10 µM

Lab book: EC50 of O=c1c2ccccc2nc(-c2ccc(F)cc2)n1NCc1ccc(C(F)(F)F)cc1 [Example 78] noted as ≤ 10 µM

Lab book: EC50 of COc1cc(-c2nc3ccccc3c(=O)n2NCc2ccc(Br)cc2)ccc1O [Example 99] noted as ≤ 10 µM

* * *

- assay system: human TGR5 (Homo sapiens, UniProt Q8TDU6)
- assay explanation: cAMP production assay in HEK293 cells stably expressing TGR5 (LANCE TR-FRET)
- particulars: 30 minutes stimulation, read-out: cAMP Production in 293-TGR5 Cells EC50
- Procedure: HEK293 cells stably expressing TGR5 (HEK293-TGR5) were established by stably transfecting HEK-293 cells with an expression vector (pcDNA 3.1, Invetrogen) inserted with human TGR5 cDNA using Fugene6 (Roche, Indianapolis, Ind.) according to conventional methods. […] TR-FRET signal was detected using the Viewlux (Perkin Elmer Inc., Boston Mass.). EC50 values were determined using Graph Pad Prizm analysis (GraphPad Software, Inc). […]
Overview of recorded EC50 for various compounds

Observe how each entry below is paired with its result.
COc1ccc2c(=O)n(NCc3ccc(F)cc3F)c(-c3ccc(F)cc3)nc2c1 :: > 10 µM
COc1ccc2c(=O)n(NCc3ccc(Br)cc3)c(-c3ccc(F)cc3)nc2c1 :: > 10 µM
O=c1c2ccccc2nc(-c2ccccc2F)n1NCc1ccc(OC(F)(F)F)cc1 :: ≤ 10 µM
COc1ccc2c(=O)n(NCc3ccc(C(F)(F)F)cc3)c(-c3ccc(F)cc3)nc2c1 :: > 10 µM
O=c1c2ccccc2nc(C2CCCCC2)n1NCc1ccc(Cl)cc1 :: ≤ 10 µM

Lab book: EC50 of `O=c1c2ccccc2nc(-c2ccc(Cl)cc2)n1NCc1ccc(Cl)cc1` noted as ≤ 10 µM

Lab book: EC50 of `COc1cccc(-c2nc3ccccc3c(=O)n2NCc2ccc(Cl)cc2)c1` noted as ≤ 10 µM

* * *

Overview of recorded EC50 for various compounds
- assay system: human TGR5 (Homo sapiens, UniProt Q8TDU6)
- assay explanation: cAMP production assay in HEK293 cells stably expressing TGR5 (LANCE TR-FRET)
- particulars: 30 minutes stimulation, read-out: cAMP Production in 293-TGR5 Cells EC50

Observe how each entry below is paired with its result.
COc1cc(OC)cc(-c2nc3ccccc3c(=O)n2NCc2ccc(Br)cc2)c1 :: ≤ 10 µM
O=c1c2cc(F)ccc2nc(-c2cccc(F)c2)n1NCc1ccccc1 :: ≤ 10 µM
O=c1c2ccccc2nc(-c2ccc(C(F)(F)F)cc2)n1NCc1ccc(Br)cc1 :: ≤ 10 µM

Lab book: EC50 of `O=c1c2ccccc2nc(-c2cccc(Cl)c2)n1NCc1ccc(F)c(F)c1` noted as ≤ 10 µM

Lab book: EC50 of `COc1cc2nc(-c3ccc(F)cc3)n(NCc3ccc(Br)cc3)c(=O)c2cc1OC` noted as > 10 µM

Lab book: EC50 of `O=c1c2ccccc2nc(-c2ccc(F)cc2)n1NCc1cccnc1` noted as > 10 µM

Lab book: EC50 of `O=c1c2ccccc2nc(-c2ccc(O)cc2)n1NCc1ccc(Br)cc1` noted as ≤ 10 µM

Lab book: EC50 of `COc1ccc(-c2nc3ccccc3c(=O)n2NCc2ccc(Br)cc2)cn1` noted as ≤ 10 µM

Lab book: EC50 of `COc1cc(-c2nc3ccccc3c(=O)n2NCc2ccc(F)c(F)c2)ccc1C` noted as ≤ 10 µM

Lab book: EC50 of `O=c1c2ccccc2nc(-c2ccc(F)cc2)n1NCCc1ccc(Br)cc1` noted as ≤ 10 µM

Lab book: EC50 of `Cc1cccc2c(=O)n(NCc3ccc(Cl)cc3)c(-c3ccc(F)cc3)nc12` noted as ≤ 10 µM
